Ref: paper PMC4823774

# PROTOCOL DESCRIPTION: Rat liver microsome stability and intrinsic clearance
# Assay type: in vitro ADME
# MEASUREMENT SETUP: liver microsomes
QUANTITY NAME: CLhep predicted (L/h/kg)
All answers are understood in L/h/kg, so give the number only.

Can you share its CLhep predicted? I mean this compound: Cc1ccoc1C(=O)Nc1ccc(N2Cc3c(Cl)cccc3C2=O)c(Cl)c1 [21a]
3.25

* * *

# TESTED ON: human mGlu1 (Homo sapiens, UniProt Q13255)
# Sequence (Q13255 19-1194): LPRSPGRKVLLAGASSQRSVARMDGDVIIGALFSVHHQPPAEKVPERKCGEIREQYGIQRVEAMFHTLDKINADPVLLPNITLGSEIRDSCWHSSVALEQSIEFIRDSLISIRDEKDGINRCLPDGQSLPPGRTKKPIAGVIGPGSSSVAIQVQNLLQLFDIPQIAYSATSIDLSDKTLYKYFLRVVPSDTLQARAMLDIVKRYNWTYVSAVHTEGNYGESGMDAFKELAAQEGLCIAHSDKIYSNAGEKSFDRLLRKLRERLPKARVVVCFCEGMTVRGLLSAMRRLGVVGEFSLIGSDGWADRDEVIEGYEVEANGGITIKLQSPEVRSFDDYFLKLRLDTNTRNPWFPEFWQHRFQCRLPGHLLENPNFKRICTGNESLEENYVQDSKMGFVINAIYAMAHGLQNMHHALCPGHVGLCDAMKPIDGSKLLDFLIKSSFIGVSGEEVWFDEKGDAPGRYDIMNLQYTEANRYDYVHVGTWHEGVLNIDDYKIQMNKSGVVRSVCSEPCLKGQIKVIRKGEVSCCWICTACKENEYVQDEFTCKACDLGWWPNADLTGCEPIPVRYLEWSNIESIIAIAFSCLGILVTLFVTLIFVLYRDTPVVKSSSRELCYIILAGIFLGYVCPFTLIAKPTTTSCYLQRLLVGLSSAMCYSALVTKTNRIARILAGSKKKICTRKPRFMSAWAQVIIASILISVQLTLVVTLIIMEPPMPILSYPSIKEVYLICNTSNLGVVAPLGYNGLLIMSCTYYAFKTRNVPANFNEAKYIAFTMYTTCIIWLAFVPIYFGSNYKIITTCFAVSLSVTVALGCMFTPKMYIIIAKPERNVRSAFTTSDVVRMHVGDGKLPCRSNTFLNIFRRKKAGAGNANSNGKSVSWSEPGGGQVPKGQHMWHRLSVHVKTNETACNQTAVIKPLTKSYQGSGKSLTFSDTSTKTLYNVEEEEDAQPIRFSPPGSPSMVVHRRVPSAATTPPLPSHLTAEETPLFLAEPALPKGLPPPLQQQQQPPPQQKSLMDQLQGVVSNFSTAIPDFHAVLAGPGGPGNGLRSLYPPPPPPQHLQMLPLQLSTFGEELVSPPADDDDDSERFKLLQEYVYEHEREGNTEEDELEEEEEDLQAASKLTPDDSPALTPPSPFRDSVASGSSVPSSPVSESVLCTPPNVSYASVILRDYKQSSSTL
# PROTOCOL DESCRIPTION: Calcium mobilization mGlu1 PAM assay
# Format: cell-based
QUANTITY NAME: mGlu1 PAM activity (in words)

{"COMPOUND": "Cc1ccoc1C(=O)Nc1ccc(N2C(=O)Cc3ccccc32)c(Cl)c1 [20g]", "ASSAY RESULT": "inactive"}
{"COMPOUND": "Cc1ccoc1C(=O)Nc1ccc(N2C(=O)[C@H]3CCCC[C@H]3C2=O)c(Cl)c1 [20a]", "ASSAY RESULT": "inactive"}
{"COMPOUND": "Cc1ccoc1C(=O)Nc1ccc(N2C(=O)[C@@H]3CCCC[C@H]3C2=O)c(Cl)c1 [20b]", "ASSAY RESULT": "inactive"}
{"COMPOUND": "Cc1ccoc1C(=O)Nc1ccc(N2Cc3ccccc3C2)c(Cl)c1 [20f]", "ASSAY RESULT": "active"}
{"COMPOUND": "Cc1ccoc1C(=O)Nc1ccc(N2CCc3ccccc32)c(Cl)c1 [20h]", "ASSAY RESULT": "active"}

Sample Cc1ccoc1C(=O)Nc1ccc(N2Cc3ccccc3C2=O)c(Cl)c1 [20e] — what was its mGlu1 PAM activity (in words)?
active

* * *

# PROTOCOL DESCRIPTION: Human liver microsome stability and intrinsic clearance
# Type: in vitro ADME
# MEASUREMENT SETUP: liver microsomes
QUANTITY NAME: CLhep predicted (mL/min/kg)
Use mL/min/kg as the unit, but write only the number.

Any idea what its CLhep predicted is? The compound is Cc1ccoc1C(=O)Nc1ccc(N2Cc3c(Cl)cccc3C2=O)c(Cl)c1 [21a]
8.53
